Data provenance: patent US7829665B2

Target: full-length NS3/NS4A-2 (HCV NS3 protease) (Hepatitis C virus genotype 1a, UniProt P27958)
Construct: Recombinant E. coli or Baculovirus full-length NS3 was diluted to 3.33 μM with assay buffer; made in house; host or cells: E. coli or baculovirus (BV) expression system
Sequence (P27958 1027-1657): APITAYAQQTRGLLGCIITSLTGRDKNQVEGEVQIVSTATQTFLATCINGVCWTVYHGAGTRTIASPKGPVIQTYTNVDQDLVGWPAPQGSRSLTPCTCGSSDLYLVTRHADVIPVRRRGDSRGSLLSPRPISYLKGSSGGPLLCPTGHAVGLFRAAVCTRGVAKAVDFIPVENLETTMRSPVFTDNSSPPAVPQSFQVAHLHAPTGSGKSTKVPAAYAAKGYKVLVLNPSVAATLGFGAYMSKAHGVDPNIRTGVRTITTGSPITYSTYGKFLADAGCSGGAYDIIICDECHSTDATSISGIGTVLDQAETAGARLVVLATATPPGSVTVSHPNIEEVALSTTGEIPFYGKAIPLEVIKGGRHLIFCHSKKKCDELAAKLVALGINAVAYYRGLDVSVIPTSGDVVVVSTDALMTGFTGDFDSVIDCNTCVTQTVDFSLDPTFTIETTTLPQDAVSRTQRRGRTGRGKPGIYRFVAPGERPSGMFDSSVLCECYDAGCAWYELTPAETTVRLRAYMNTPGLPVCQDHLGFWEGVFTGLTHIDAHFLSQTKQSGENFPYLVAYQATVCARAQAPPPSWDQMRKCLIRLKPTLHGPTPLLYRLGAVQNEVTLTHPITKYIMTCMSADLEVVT
Experiment: NS3-NS4 protease assay / NS3 inhibition assay (RETS1 substrate, fluorescence kinetic read)
Assay type: biochemical
Settings: recombinant E. coli or Baculovirus full-length NS3 with NS4A-2; read-out: NS3-NS4 IC50
In this section, each of the compounds is paired with its reported IC50.

Need IC50 of O=C1N[C@]2(C(=O)NS(=O)(=O)C3CC3)C[C@H]2/C=C\CCCCC[C@H](N(CC2CC2)CC2CC2)C(=O)N2C[C@H](OC(=O)N3Cc4cccc(F)c4C3)C[C@@H]12 , thanks.
< 1000 nM

Another compound to check: COc1c(C(=O)O)csc1S(=O)(=O)NC(=O)[C@@]12C[C@H]1/C=C\CCCCC[C@H](NC(=O)OC(C)(C)C)C(=O)N1CCC[C@H]1C(=O)N2
< 10000 nM

Another compound to check: O=C1N[C@]2(C(=O)NS(=O)(=O)C3CC3)C[C@H]2/C=C\CCCCC[C@H](NCCC(F)(F)F)C(=O)N2C[C@H](OC(=O)N3Cc4cccc(F)c4C3)C[C@@H]12
< 100 nM
